MOLECULE | logP
COc1ccc2[nH]c3c(c2c1)CCNc1cc(Cl)ccc1-3 | 4.24
COCC(F)Cn1cnc([N+](=O)[O-])n1 (stereo not drawn) | -0.04
C#CCOc1c(Cl)cc(NC=NOCC=C)cc1Cl | 3.7
Nc1ccc(Oc2ccc(N)cc2)cc1 | 1.36
O=Cc1ccc(O)c2ncccc12 | 1.63
Cc1cc(Cl)c(Cl)cc1Cl | 4.56
CC1CN(c2cc3c(cc2F)c(=O)c(C(=O)O)cn3-c2ccc(F)cc2F)CCN1 (stereo not drawn) | -0.2
Cc1ncc([N+](=O)[O-])n1CCc1ccncc1 | 0.06

====

PROPERTY_MEASURED: logP

COMPOUND | VALUE
CCOc1ccc(NC(=O)OCCN2CCOCC2)cc1 | 2.18
CCn1cc(C(=O)O)c(=O)c2ccc(C)nc21 | 1.59
OC1CCN(CCCc2ccc(CSc3ccccc3)cc2)CC1 | 3.67
CCN(CC)CCSC(=NO)c1nonc1C | 1.4
C#CCNC(=O)C1(O)C(C)CC2C3CCC4=CC(=O)C=CC4(C)C3(F)C(O)CC21C (stereo not drawn) | 2
O=[N+]([O-])c1ccc2ccc3cccc4ccc1c2c34 | 5.06
Cc1cccc(Cl)c1Cl | 3.96
Cc1cc(Cl)cc(Cl)c1 | 3.99
CCOC(=O)C(C)Oc1ccc(Oc2cnc3cc(C(F)(F)F)ccc3n2)cc1 (stereo not drawn) | 4.37
Cc1cc(O)cc(C)c1O | 1
O=[N+]([O-])c1nccn1COC(CO)CO | -1.17
CCC(=O)C(CS(=O)(=O)c1ccccc1)c1ccc(C)cc1 (stereo not drawn) | 2.7
CC1=NCCC1 | 1.87
CC(=O)OC1C(=O)C2(C)C(O)CC3OCC3(OC(C)=O)C2C(OC(=O)c2ccccc2)C2(O)CC(OC(=O)C(O)CNC(=O)c3ccccc3)C(C)=C1C2(C)C (stereo not drawn) | 1.75
CCNC(=O)c1cccc2c1C(=O)C(=O)N(CC)C2=O | 0.3
C#CCOc1c(Cl)cc(NC=NOCC(=O)OCC)cc1Cl | 3.6
CCCCCCCC(=O)OC(C(=O)NC1C(=O)N2C(C(=O)O)=C(C)CSC12)c1ccccc1 (stereo not drawn) | 3.54
Nc1ccn(C2OC3COC2C3O)c(=O)n1 (stereo not drawn) | -1.64
Fc1ccc(SCc2ccccc2CCCN2CCOCC2)cc1 | 3.69
CCCCC(NC(Cc1ccccc1)C(=O)N1CCC(OCOC)CC1)C(=O)NC(CC1CCCCC1)C(O)CC(C(=O)NCCC[N+]1([O-])CCOCC1)C(C)C (stereo not drawn) | 3.6
S=C=NCCCCCc1ccccc1 | 4.4
CCN(C=Nc1ccn(C2OC(CO)C(O)C2O)c(=O)n1)CC (stereo not drawn) | -0.76
CC(C)NCC(O)COCCCc1ccccc1 (stereo not drawn) | 1.94

====

Listed here: items and their measured logP.

COMPOUND | logP
C#CCOc1c(Cl)cc(NC=NOCc2ccccc2)cc1Cl | 4.2
O=C(O)C(Cc1ccc(O)cc1)n1cccc1 (stereo not drawn) | 1.56
Cn1c([N+](=O)[O-])cnc1Cc1ccc(C(N)=O)cc1 | 0.55

====

Checkbox rule: logP lower than 2 = 1.0; logP not lower than 2 = 0.0.

COMPOUND | ASSIGNED_CATEGORY
CC(C)(C)NC(=O)C1CN(S(=O)(=O)c2cccc3cccnc23)CCN1CC(O)CC(Cc1ccccc1)C(=O)NC1c2ccccc2CC1O (stereo unspecified) | 0.0
CC(C)(C)C(=O)OCn1cc2c(=O)[nH]cnc2n1 | 1.0
O=c1[nH]nc(SCc2ccccc2)[nH]1 | 1.0
CSC(=NOC(=O)N(C)COC1OC(C(=O)O)C(O)C(O)C1O)C(=O)N(C)C (stereo unspecified) | 1.0
O=C(OCCCl)n1cc(F)c(=O)[nH]c1=O | 1.0
Cc1ccc(C2(Cn3cncn3)OCCO2)cc1 | 1.0

====

Is logP at least 1? Then y. If not, n.

COMPOUND | ASSIGNED_CATEGORY
c1ccc(Cn2cccc2)cc1 | y
Clc1cc(Cl)c(Cl)c(-c2cc(Cl)c(Cl)cc2Cl)c1 | y
CCOC(=O)Cn1ccnc1[N+](=O)[O-] | n
CC(=O)Nc1ccnnc1 | n
CN(C)N=Nc1cccc(C(N)=O)c1 | y
COc1ccccc1NC(=O)OCCN1CCOCC1 | y
C=C1CCC2C(C1)c1c(OC)cc(CCC)cc1OC2(C)C (centres undefined) | y
O=c1nc(N=CN2CCOCC2)ccn1C1OC(CO)C(O)C1O (centres undefined) | n

====

Note: every record was labeled by where its logP sits among low bin = under 1, mid bin = from 1 up to 3, high bin = 3 and over

MOLECULE | ASSIGNED_CATEGORY
CN(C)c1nc(=O)n(C2CCCCC2)c(=O)n1C | mid bin
CC(C)(C)N(NC(=O)c1ccccc1F)C(=O)c1ccccc1Cl | mid bin
O=C(Cc1ccccc1)NCCNCC(O)COCc1ccccc1 (centres undefined) | mid bin
CCCNc1nc(C(Cl)(Cl)Cl)nc(C(Cl)(Cl)Cl)n1 | high bin
COc1cc(S(C)=O)ccc1-c1nc2ccccc2[nH]1 (centres undefined) | mid bin
CCN1C(=O)C(=O)c2ccc(Cl)cc2C1=O | mid bin
Clc1cc2oc3c(Cl)cc(Cl)c(Cl)c3c2cc1Cl | high bin
Cc1ncc([N+](=O)[O-])n1CCNC(=O)OC1CCCCC1 | mid bin
CCCCCC1CC(C(=O)NC(C(C)O)C2OC(SC)C(O)C(O)C2O)N(C)C1 (centres undefined) | low bin
CSC(=O)c1c(C(F)F)nc(C(F)(F)F)c(C(=O)SC)c1CC(C)C | high bin
CC(=O)OC1C(=O)C2(C)C(O)CC3OCC3(OC(C)=O)C2C(OC(=O)c2ccccc2)C2(O)CC(OC(=O)C(O)Cc3ccccc3)C(C)=C1C2(C)C (centres undefined) | mid bin
O=C(c1c[nH]c2ccccc12)C(F)(F)F | high bin
CCOC(=O)C(CC)C(CO)Cc1cncn1C (centres undefined) | low bin
CCC(=O)C1(c2cccc(OC(=O)OC)c2)CCN(C)CC1 | low bin
Sc1nc(-c2ccccc2)ns1 | mid bin
CCC(=O)C(CS(=O)(=O)c1ccccc1)c1ccc(Cl)cc1 (centres undefined) | mid bin
C#CCOc1c(Cl)cc(NC=NOCC)cc1Cl | high bin
CCN1C(=O)C(=O)c2c(C#N)cccc2C1=O | low bin
CS(=O)(=O)CCOCn1ccnc1C=NO | low bin
CC(=O)OCN1C(=O)C2=C(CCCC2)C1=O | mid bin
CC(C)N1C(=O)C(=O)c2ccccc2C1=O | mid bin
CCOC(=O)C(C)Oc1ccc(Oc2cnc3cc(C)ccc3n2)cc1 (centres undefined) | high bin
OCC1COC(Cn2cncn2)(c2ccc(Cl)cc2Cl)O1 (centres undefined) | mid bin
O=C(O)C(OCc1ccccc1)c1ccccc1 (centres undefined) | mid bin
CCCCC(=O)OCCOCn1cnc2c(=O)[nH]c(N)nc21 | low bin
O=[N+]([O-])C=C1NCCN1Cc1ccccn1 | low bin
NC(=O)COc1cccc(Cc2cnc(N)nc2N)c1 | low bin
Cn1nnnc1SCC1=C(C(=O)OCOC(=O)C(C)(C)C)N2C(=O)C(NC(=O)Cc3csc(N)n3)C2SC1 (centres undefined) | mid bin

====

MOLECULE | logP
CN1C(=O)C(=O)C(=O)N(C)C1=O | -0.6
Cc1cc(Cl)ccc1Cl | 3.97
CCN1CCN(C(=O)N[C@@H](C(=O)N[C@@H]2C(=O)N3[C@@H]2SC(C)(C)[C@@H]3C(=O)O)c2ccccc2)C(=O)C1=O | 0.5
CNC(=O)OCc1c2c(n3c1C(OC(C)=O)CC3)C(=O)C(C)=C(OC)C2=O (stereo unspecified) | 2.39
CC1(c2ccc(F)cc2)OC2CC3C4CCC5=CC(=O)CCC5C4CCC3(C)C2(C(=O)CO)O1 (stereo unspecified) | 4.92
COc1ccccc1SCc1ccccc1CCCN1CCC(O)CC1 | 3.58
C#CCOc1c(Cl)cc(NC=NOCC=CCl)cc1Cl | 3.9
CC(=O)OCC(O)Cn1ccnc1[N+](=O)[O-] (stereo unspecified) | -0.37
O=c1cccccc1 | 0.26
Cc1cccc(C)c1NC(=O)c1ccc(CN2CCCC2)cc1 | 3.14
CN(C)N=Nc1ccc2oc3ccccc3c2c1 | 4.55
COc1cc(C)c2c(c1OC)-c1ccc(NCc3ccccc3)c(=O)cc1C(NC(C)=O)CC2 (stereo unspecified) | 3.58
CCCCCCC(C)(C)c1ccc(C2CC(O)CC3CCC(O)CC32)c(O)c1 (stereo unspecified) | 6.13
CCCCOc1ccc(NC(=O)OCCN2CCOCC2)cc1 | 3.35
CCc1nc(C)c([N+](=O)[O-])[nH]1 | 0.76
ClC(Cl)(Cl)c1nc(C(Cl)(Cl)Cl)nc(C(Cl)(Cl)Cl)n1 | 3.75

Data provenance is the OPERA property sets (Mansouri et al. 2018).
